# reported melting point; entries follow

- compound: "CCNc1ccc(-n2nc(C(F)(F)F)cc2C(F)(F)F)cc1 [Example 613]"
  melting point (°C): 54
- compound: "N#Cc1ccc(Nc2ccc(-n3nc(C(F)(F)F)cc3C(F)(F)F)cc2)cc1 [Example 864]"
  melting point (°C): 247

* * *

# reported melting point; entries follow

- compound: "FC(F)(F)c1cc(C(F)(F)F)n(-c2ccc(Nc3nc4ccccc4[nH]3)cc2)n1"
  melting point: "220 to 222 °C"
- compound: "FC(F)(F)c1cc(Cl)n(-c2ccc(Nc3nccc4ccccc34)cc2)n1"
  melting point: "244 to 254 °C"
- compound: "Cc1cc(C(F)(F)F)nn1-c1ccc(NC(=O)C2CCCC2)cc1"
  melting point: "176 to 178 °C"
- compound: "CN(C)Cc1cc(C(F)(F)F)n(-c2ccc(NC(=O)c3ccc(Cl)cc3)cc2)n1"
  melting point: "177 to 178 °C"
- compound: "CSc1cc(-c2ccco2)nn1-c1ccc(NC(=O)c2ccc(Cl)cc2)cc1"
  melting point: "176 to 178 °C"
- compound: "FC(F)(F)c1cc(C(F)(F)F)n(-c2ccc(Nc3nccc4ccccc34)cc2)n1"
  melting point: "205 to 220 °C"
- compound: "FC(F)(F)c1cc(C(F)(F)F)n(-c2ccc(NCc3ccc(Cl)cc3)cc2)n1"
  melting point: "89 to 90 °C"
- compound: "O=C(Nc1ccc(-n2nc(C(F)(F)F)cc2C(F)(F)F)cc1)c1ccccc1"
  melting point: "243 to 245 °C"
- compound: "CCc1cc(C(C)C)nn1-c1ccc(NC(=O)c2c(C)noc2C)cc1"
  melting point: "173 to 175 °C"
- compound: "C[S+]([O-])c1cc(-c2ccco2)nn1-c1ccc(NC(=O)c2ccc(Cl)cc2)cc1 (stereo not drawn)"
  melting point: "110 °C"
- compound: "CCc1cc(C(C)C)nn1-c1ccc(Nc2ncccc2C#N)cc1"
  melting point: "123 to 124 °C"
- compound: "O=C(Nc1ccc(-n2nc(C(F)(F)F)cc2C(F)(F)F)cc1)C1CCCNC1 (stereo not drawn)"
  melting point: "231 to 233 °C"
- compound: "CCc1cc(C(F)(F)F)nn1-c1ccc(NCc2sccc2C)cc1"
  melting point: "93 to 95 °C"
- compound: "O=C(Nc1ccc(-n2nc(C(F)(F)F)cc2C(F)(F)F)cc1)c1ccnc2ccccc12"
  melting point: "204 to 205 °C"
- compound: "CCCCCC(=O)Nc1ccc(-n2nc(C(F)(F)F)cc2C(F)(F)F)cc1"
  melting point: "107 to 109 °C"
- compound: "O=C(Nc1ccc(-n2nc(C(F)(F)F)cc2C(F)(F)F)cc1)c1cnc2ccccc2n1"
  melting point: "196 °C"
- compound: "CCc1cc(C(C)C)nn1-c1ccc(NC(=O)c2cnccn2)cc1"
  melting point: "169 to 171 °C"
- compound: "CCc1cc(C(F)(F)F)nn1-c1ccc(NC(=O)c2c(C)ncn2C)cc1"
  melting point: "179 to 182 °C"
- compound: "O=C(Nc1ccc(-n2nc(C(F)(F)F)cc2C(F)(F)F)cc1)N1CCOCC1"
  melting point: "185 to 186 °C"
- compound: "CC(=O)Nc1ccc(-n2nc(C(F)(F)F)cc2C(F)(F)F)cc1"
  melting point: "175 to 176 °C"
- compound: "CCc1cc(C(C)C)nn1-c1ccc(NCc2c(C)noc2C)cc1"
  melting point: "87 to 88 °C"

These data points were gathered from patent US6506747B1.
